Source of measurements: patent US20120238488A1

system: OVCAR3 (Ovary); assay: SRB assay, OVCAR3; assay type: cell-based, human; details: OVCAR3, SRB, 48 h
Examples of molecules with documented TGI follow.
Write the value in nM as a bare number.

Here are 4 molecules together with their reported answers.
C[C@H]1O[C@@H](O[C@H]2[C@@H](O)C[C@H](O[C@H]3[C@@H](O)C[C@H](O[C@H]4CC[C@@]5(C)[C@H](CC[C@@H]6[C@@H]5C[C@@H](O)[C@]5(C)[C@@H](C7=CC(=O)OC7)CC[C@]65O)C4)O[C@@H]3C)O[C@@H]2C)C[C@H](O)[C@@H]1O [Digoxin, reference compound]
2650
C[C@]12CCC(=NOCCN)CC1CCC1C2CC[C@]2(C)C(=O)CCC12 (stereo partly drawn)
637.5
C[C@]12CCC(=NOC3CCNC3)C=C1CCC1C2CC[C@]2(C)C(=O)CCC12 (stereo partly drawn)
800.4
C[C@]12CCC(=NOCCN)C=C1CCC1C2CC[C@@]2(C)C1CC[C@@H]2O (stereo partly drawn)
41510

**Query** Any idea what its TGI is? The molecule is C[C@]12CCC(=NOCCN)C=C1CCC1C2CC[C@]2(C)C(=O)CCC12 (stereo partly drawn)
**Result** 28790

**Query** Any idea what its TGI is? The molecule is C[C@]12CCC(=NOC3CCNC3)CC1CCC1C2CC[C@]2(C)C(=O)CCC12 (stereo partly drawn)
**Result** 11.4
